Hey, just so you know, these numbers are from patent US20060280894A1.

Kindly supply the reported ε values for the records listed here.
- Assay name: Absorption spectrum measured in solution
Reply with just the number (in L/mol/cm).

Q) Input CCN(CC)c1ccc(N=Nc2nc(C#N)c(C#N)[nH]2)c([N-]P(=O)(OCC(F)(F)C(F)F)OCC(F)(F)C(F)F)c1.CCN(CC)c1ccc(N=Nc2nc(C#N)c(C#N)[nH]2)c([N-]P(=O)(OCC(F)(F)C(F)F)OCC(F)(F)C(F)F)c1.[Ni+2] [Example 5] , output reported ε.
A) 70893

Q) Input CCN(CC)c1ccc(N=Nc2nc(C#N)c(C#N)n2C)c([N-]P(=O)(OCC(F)(F)C(F)F)OCC(F)(F)C(F)F)c1.CCN(CC)c1ccc(N=Nc2nc(C#N)c(C#N)n2C)c([N-]P(=O)(OCC(F)(F)C(F)F)OCC(F)(F)C(F)F)c1.[Co+2] [Example 3] , output reported ε.
A) 92203

Q) Input CCN(CC)c1ccc(N=Nc2nc(-c3ccccc3)ns2)c([N-]S(=O)(=O)N(C)C)c1.CCN(CC)c1ccc(N=Nc2nc(-c3ccccc3)ns2)c([N-]S(=O)(=O)N(C)C)c1.[Co+2] [Example 12] , output reported ε.
A) 92750

Q) Input CCN(CC)c1ccc(N=Nc2nc(C#N)c(C#N)n2C)c([N-]S(=O)(=O)N(C)C)c1.CCN(CC)c1ccc(N=Nc2nc(C#N)c(C#N)n2C)c([N-]S(=O)(=O)N(C)C)c1.[Co+2] [Example 16] , output reported ε.
A) 94990
